Origin of measurements: BigSolDB 2.1

Conditions: in ethanol, 278.15 K
measured.quantity: solubility (mole fraction)

"O=c1ccc2ccccc2o1" yielded solubility (mole fraction) of 0.0071

---

Conditions: in cyclohexane, 303.15 K
measured.quantity: solubility (mole fraction)
A bare number is all that is needed in reply.

"O=c1ccc2ccccc2o1" yielded solubility (mole fraction) of 0.00607

---

Settings: in n-hexane, 303.15 K
measured.quantity: solubility (mole fraction)
A bare number is all that is needed in reply.

"O=c1ccc2ccccc2o1" yielded solubility (mole fraction) of 0.00421

---

Conditions: in n-propanol, 313.15 K
measured.quantity: solubility (mole fraction)
A bare number is all that is needed in reply.

"O=c1ccc2ccccc2o1" yielded solubility (mole fraction) of 0.202

---

Settings: in cyclohexane, 283.15 K
measured.quantity: solubility (mole fraction)
A bare number is all that is needed in reply.

"O=c1ccc2ccccc2o1" yielded solubility (mole fraction) of 0.00162

---

Details: in n-propanol, 308.15 K
measured.quantity: solubility (mole fraction)
A bare number is all that is needed in reply.

"O=c1ccc2ccccc2o1" yielded solubility (mole fraction) of 0.124

---

Settings: in isopropanol, 298.15 K
measured.quantity: solubility (mole fraction)
A bare number is all that is needed in reply.

"O=c1ccc2ccccc2o1" yielded solubility (mole fraction) of 0.0351

---

Details: in cyclohexane, 298.15 K
measured.quantity: solubility (mole fraction)
A bare number is all that is needed in reply.

"O=c1ccc2ccccc2o1" yielded solubility (mole fraction) of 0.00428

---

Conditions: in cyclohexane, 318.15 K
measured.quantity: solubility (mole fraction)
A bare number is all that is needed in reply.

"O=c1ccc2ccccc2o1" yielded solubility (mole fraction) of 0.0144

---

Conditions: in methanol, 308.15 K
measured.quantity: solubility (mole fraction)
A bare number is all that is needed in reply.

"O=c1ccc2ccccc2o1" yielded solubility (mole fraction) of 0.199

---

Details: in methanol, 283.15 K
measured.quantity: solubility (mole fraction)
A bare number is all that is needed in reply.

"O=c1ccc2ccccc2o1" yielded solubility (mole fraction) of 0.0182

---

Details: in methanol, 313.15 K
measured.quantity: solubility (mole fraction)
A bare number is all that is needed in reply.

"O=c1ccc2ccccc2o1" yielded solubility (mole fraction) of 0.32

---

Conditions: in cyclohexane, 308.15 K
measured.quantity: solubility (mole fraction)
A bare number is all that is needed in reply.

"O=c1ccc2ccccc2o1" yielded solubility (mole fraction) of 0.00824

---

Settings: in ethanol, 318.15 K
measured.quantity: solubility (mole fraction)
A bare number is all that is needed in reply.

"O=c1ccc2ccccc2o1" yielded solubility (mole fraction) of 0.357

---

Conditions: in n-hexane, 298.15 K
measured.quantity: solubility (mole fraction)

"O=c1ccc2ccccc2o1" yielded solubility (mole fraction) of 0.00319

---

Conditions: in cyclohexane, 313.15 K
measured.quantity: solubility (mole fraction)
A bare number is all that is needed in reply.

"O=c1ccc2ccccc2o1" yielded solubility (mole fraction) of 0.0111

---

Settings: in methanol, 288.15 K
measured.quantity: solubility (mole fraction)
A bare number is all that is needed in reply.

"O=c1ccc2ccccc2o1" yielded solubility (mole fraction) of 0.0303

---

Conditions: in methanol, 318.15 K
measured.quantity: solubility (mole fraction)
A bare number is all that is needed in reply.

"O=c1ccc2ccccc2o1" yielded solubility (mole fraction) of 0.484

---

Details: in n-propanol, 278.15 K
measured.quantity: solubility (mole fraction)
A bare number is all that is needed in reply.

"O=c1ccc2ccccc2o1" yielded solubility (mole fraction) of 0.00521

---

Conditions: in ethanol, 303.15 K
measured.quantity: solubility (mole fraction)
A bare number is all that is needed in reply.

"O=c1ccc2ccccc2o1" yielded solubility (mole fraction) of 0.0869

---

Settings: in ethanol, 313.15 K
measured.quantity: solubility (mole fraction)

"O=c1ccc2ccccc2o1" yielded solubility (mole fraction) of 0.222

---

Settings: in n-hexane, 308.15 K
measured.quantity: solubility (mole fraction)
A bare number is all that is needed in reply.

"O=c1ccc2ccccc2o1" yielded solubility (mole fraction) of 0.00574

---

Settings: in isopropanol, 293.15 K
measured.quantity: solubility (mole fraction)

"O=c1ccc2ccccc2o1" yielded solubility (mole fraction) of 0.0204

---

Details: in isopropanol, 313.15 K
measured.quantity: solubility (mole fraction)
A bare number is all that is needed in reply.

"O=c1ccc2ccccc2o1" yielded solubility (mole fraction) of 0.171

---

Conditions: in isopropanol, 278.15 K
measured.quantity: solubility (mole fraction)
A bare number is all that is needed in reply.

"O=c1ccc2ccccc2o1" yielded solubility (mole fraction) of 0.00371

---

Conditions: in isopropanol, 303.15 K
measured.quantity: solubility (mole fraction)
A bare number is all that is needed in reply.

"O=c1ccc2ccccc2o1" yielded solubility (mole fraction) of 0.0604
